Each recorded value in this set is attributed to PubChem BioAssay (Tox21).

EXPERIMENTAL SYSTEM: Cytochrome P450 2C19 (Homo sapiens) (UniProt P33261)
Sequence (P33261 whole entry, looked up): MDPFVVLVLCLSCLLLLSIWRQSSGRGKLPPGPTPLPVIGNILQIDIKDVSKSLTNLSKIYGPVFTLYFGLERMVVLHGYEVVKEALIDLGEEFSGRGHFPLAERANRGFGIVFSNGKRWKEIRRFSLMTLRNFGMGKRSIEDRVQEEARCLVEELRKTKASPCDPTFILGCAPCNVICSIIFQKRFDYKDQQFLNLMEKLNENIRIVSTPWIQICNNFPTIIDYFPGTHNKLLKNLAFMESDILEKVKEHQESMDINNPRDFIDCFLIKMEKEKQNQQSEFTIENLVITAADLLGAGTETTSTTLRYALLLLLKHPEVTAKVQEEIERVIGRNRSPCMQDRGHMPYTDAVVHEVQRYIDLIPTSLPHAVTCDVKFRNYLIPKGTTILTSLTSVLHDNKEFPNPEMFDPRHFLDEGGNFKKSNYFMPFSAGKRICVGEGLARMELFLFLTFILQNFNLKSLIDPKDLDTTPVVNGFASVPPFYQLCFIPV
ASSAY REMARKS: Cytochrome P450 Family 2 Subfamily C Member 19 (CYP2C19) small molecule antagonists: luciferase reporter qHTS assay (AID 1671197); also: nearly all actives have a fitted effect of over 65% in size; also: potency is read from the fitted curve at half-maximal effect
ASSAY CONDITIONS: P450-Glo CYP2C19 enzyme, luciferin luminescence, 1 h; series mostly up to 115 µM
Source text: National Center for Advancing Translational Sciences [NCATS] U.S. Environmental Protection Agency [EPA] National Institutes of Environmental Health Sciences [NIEHS] National Toxicology Program [NTP] U.S. Food and Drug Administration [FDA] Cytochrome P450 (CYP) enzymes are membrane-bound hemeproteins that play a key role in metabolism of drugs and xenobiotics. […] The luciferin products formed are detected with a luciferin detection reagent, and the amount of light produced is proportional to CYP activity. […]
Inconclusive results are not listed. Calls of active or inactive are those of the source. Calls follow the shape of the dose curve; as a rule, active = well fitted inhibition curve with a large enough effect in the repeat runs; inconclusive = weak or mixed curves; inactive = no such curve, though single readings can be large or run the other way.
TEST READOUT: Potency

INSERT INTO measurements (molecule, recorded_measurement) VALUES
  ('C=C(C)C(=O)OCC(C)(C)COC(=O)C(=C)C', 'inactive'),
  ('CCCCCCCCC1CCC(=O)O1 (configuration not stated)', '56.4 µM (active)'),
  ('CC(=O)NCCCCCC(=O)O', 'inactive'),
  ('CC(C)CCCC(C)(C)O', 'inactive'),
  ('COCCOCCOCCOCCOCCO', 'inactive'),
  ('Cc1ccc2ccc(Cl)cc2n1', 'inactive');

Please report Potency for the following molecule: O=S(=O)(O)CCN1CCN(CCO)CC1 inactive

Please report Potency for the following molecule: O=C(/N=N/C(=O)OCc1ccccc1)OCc1ccccc1 1.78 µM (active)

Please report Potency for the following molecule: Cc1cc(NC(=O)C2=C(O)c3ccccc3S(=O)(=O)N2C)no1 inactive

Please report Potency for the following molecule: COc1ccc(OC)c(Cl)c1 inactive

Please report Potency for the following molecule: CC(C)CC(C)CC(C)CC(C)COC(=O)c1ccccc1C(=O)OCC(C)CC(C)CC(C)CC(C)C (configuration not stated) 65.9 µM (active)

Please report Potency for the following molecule: COc1ccc2c(c1OC)C(=O)O[C@@H]2[C@H]1c2c(cc3c(c2OC)OCO3)CCN1C 1.38 µM (active)

Please report Potency for the following molecule: CCC(C)NC(N)=O (configuration not stated) inactive

Please report Potency for the following molecule: C[C@@H](Oc1ccc(CNC(=O)c2cccnc2Oc2ccc3c(c2)OCO3)c(F)c1)C(=O)O inactive

Please report Potency for the following molecule: OCCC(F)(F)C(F)(F)C(F)(F)C(F)(F)C(F)(F)C(F)(F)C(F)(F)C(F)(F)F inactive

Please report Potency for the following molecule: BrCCCCCBr inactive

Please report Potency for the following molecule: CC(C)(C)c1nnc(NS(=O)(=O)c2ccc(N)cc2)s1 inactive
